Biological target: hP2X7 (Homo sapiens, UniProt Q99572)
Construct: expressed in transfected cells; host or cells: 1321N1 astrocytoma cells
Sequence (Q99572 1-595): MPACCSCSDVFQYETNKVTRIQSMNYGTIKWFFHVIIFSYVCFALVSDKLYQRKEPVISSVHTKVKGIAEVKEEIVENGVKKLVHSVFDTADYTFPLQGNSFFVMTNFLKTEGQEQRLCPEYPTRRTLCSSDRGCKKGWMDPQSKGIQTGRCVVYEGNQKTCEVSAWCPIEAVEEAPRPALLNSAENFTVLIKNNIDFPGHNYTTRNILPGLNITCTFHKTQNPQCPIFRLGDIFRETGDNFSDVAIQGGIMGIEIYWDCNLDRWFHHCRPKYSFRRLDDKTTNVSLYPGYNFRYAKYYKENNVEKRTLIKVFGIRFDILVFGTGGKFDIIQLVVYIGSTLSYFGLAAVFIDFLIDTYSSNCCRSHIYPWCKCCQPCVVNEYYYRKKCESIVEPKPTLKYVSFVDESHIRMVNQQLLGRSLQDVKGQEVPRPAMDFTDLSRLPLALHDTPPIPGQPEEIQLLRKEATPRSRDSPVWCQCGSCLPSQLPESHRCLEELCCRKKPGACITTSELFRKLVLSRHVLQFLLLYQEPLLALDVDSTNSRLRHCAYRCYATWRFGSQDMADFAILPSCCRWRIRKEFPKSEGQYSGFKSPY
Assay: P2X7 antagonism: ligand-induced Ca2+ flux in 1321N1 astrocytoma cells overexpressing hP2X7
Assay type: cell-based
Settings: pIC50 = -log(IC50), read-out: hP2RX7pIC50 (mean pIC50 values) (converted)
I'd appreciate it if you marked entries y when IC50 is lower than 90 nM and n when it is not.

Example entries and their recorded answers appear below.
Query: State whether 90 nM exceeds IC50 recorded for Nc1ncc(C(CNC(=O)c2cccc3nc(N4CCOCC4)ccc23)N2CCC(F)(F)CC2)cn1 (centres unmarked) [Compound 187] .
Reply: y

Query: State whether 90 nM exceeds IC50 recorded for CC1CN(c2ccc3c(C(=O)NCC(c4cnc(C(F)(F)F)nc4)N4CCOCC4)cccc3n2)CCN1 (centres unmarked) [Compound 271] .
Reply: n

Query: State whether 90 nM exceeds IC50 recorded for CN(C)c1ncc(C(CNC(=O)c2cccc3nc(N4CCOCC4)ccc23)N2CCOCC2)cn1 (centres unmarked) [Compound 232] .
Reply: n

Query: State whether 90 nM exceeds IC50 recorded for O=C(NCC(c1cnc(C(F)(F)F)nc1)N1CCCC1)c1cccc2ncccc12 (centres unmarked) [Compound 45] .
Reply: n

Query: State whether 90 nM exceeds IC50 recorded for COCCCNc1ccc2c(C(=O)NCC(c3cnc(C(F)(F)F)nc3)N3CCOCC3)cccc2n1 (centres unmarked) [Compound 185] .
Reply: n

Continuing:
Query: State whether 90 nM exceeds IC50 recorded for O=C(NCC(c1cnc(C(F)(F)F)nc1)N1CCCCCC1)c1cccc2ncccc12 (centres unmarked) [Compound 52] .
Reply: y

Query: State whether 90 nM exceeds IC50 recorded for COCC(C)Nc1ccc2c(C(=O)NCC(c3cnc(C(F)(F)F)nc3)N3CCOCC3)cccc2n1 (centres unmarked) [Compound 278] .
Reply: y

Query: State whether 90 nM exceeds IC50 recorded for CC(C)Oc1ncc(C(CNC(=O)c2cccc3nc(N4CCOCC4)ccc23)N2CCC(F)(F)CC2)cn1 (centres unmarked) [Compound 235] .
Reply: y

###

molecular target: hP2X7 (Homo sapiens, UniProt Q99572); construct: expressed in transfected cells; host or cells: 1321N1 astrocytoma cells; test: P2X7 antagonism: ligand-induced Ca2+ flux in 1321N1 astrocytoma cells overexpressing hP2X7; type: cell-based; details: pIC50 = -log(IC50), read-out: hP2RX7pIC50 (mean pIC50 values) (converted)
endpoint label: log10(IC50) (log10 of the value in nM)
Note the log scale: values are log10 of IC50 expressed in nM.

Worked examples follow.
Query: Lab request: please report log10(IC50) under test system hP2X7 (Homo sapiens, UniProt Q99572) for CCc1ncc(C(CNC(=O)c2cccc3nc(N4CCN(C(C)C)CC4)ccc23)N2CCC(F)(F)CC2)cn1 (centres unmarked) [Compound 292]
Reply: 2.06

Query: Lab request: please report log10(IC50) under test system hP2X7 (Homo sapiens, UniProt Q99572) for CCOc1ccc2c(C(=O)NCC(c3cnc(C(F)(F)F)nc3)N3CCOCC3)cccc2n1 (centres unmarked) [Compound 166]
Reply: 1.69

Continuing:
Query: Lab request: please report log10(IC50) under test system hP2X7 (Homo sapiens, UniProt Q99572) for CCc1ncc(C(CNC(=O)c2cccc3nc(N4CCOCC4)ccc23)N2CCOCC2)cn1 (centres unmarked) [Compound 311]
Reply: 2.05

Query: Lab request: please report log10(IC50) under test system hP2X7 (Homo sapiens, UniProt Q99572) for O=C(NCC(c1cnc(C2CCCC2)nc1)N1CCC(F)(F)CC1)c1cccc2nc(N3CCOCC3)ccc12 (centres unmarked) [Compound 249]
Reply: 1.71

Query: Lab request: please report log10(IC50) under test system hP2X7 (Homo sapiens, UniProt Q99572) for O=C(NCC(c1cncnc1)N1CCC(F)(F)CC1)c1cccc2nc(NC3CC3)ccc12 (centres unmarked) [Compound 256]
Reply: 1.65

###

target: hP2X7 (Homo sapiens, UniProt Q99572); construct: expressed in transfected cells; host or cells: 1321N1 astrocytoma cells; experiment: P2X7 antagonism: ligand-induced Ca2+ flux in 1321N1 astrocytoma cells overexpressing hP2X7; format: cell-based; conditions: pIC50 = -log(IC50), read-out: hP2RX7pIC50 (mean pIC50 values) (converted)
endpoint label: IC50 (nM)
Note: unit nM is implicit; provide only the numeric part.

Worked examples follow.
Query: Fill in the blank: the reported IC50 of CN(C)c1ncc(C(CNC(=O)c2cccc3nc(NC4CC4)ccc23)N2CCOCC2)cn1 (stereo not shown) [Compound 233] is ____.
Reply: 148

Query: Fill in the blank: the reported IC50 of CC1CCCCN1C(CNC(=O)c1cccc2ncccc12)c1cnc(C(F)(F)F)nc1 (stereo not shown) [Compound 73] is ____.
Reply: 50.1

Query: Fill in the blank: the reported IC50 of CCc1cc2cc(C(=O)NCC(c3ccc(C(F)(F)F)nc3)N3CCC(F)(F)CC3)ccc2nc1C (stereo not shown) [Compound 24] is ____.
Reply: 5250

Switching to the query record.
Query: Fill in the blank: the reported IC50 of CC(C)Oc1ncc(C(CNC(=O)c2cccc3nc(NCC4CC4)ccc23)N2CCC(F)(F)CC2)cn1 (stereo not shown) [Compound 248] is ____.
Reply: 33.1

###

Catalogue of log10(IC50) values
target: hP2X7 (Homo sapiens); construct: expressed in transfected cells; host or cells: 1321N1 astrocytoma cells; assay: P2X7 antagonism: ligand-induced Ca2+ flux in 1321N1 astrocytoma cells overexpressing hP2X7; format: cell-based; details: pIC50 = -log(IC50), read-out: hP2RX7pIC50 (mean pIC50 values) (converted)
Note the log scale: values are log10 of IC50 expressed in nM.

Worked examples follow.
Query: Fill in the blank: the reported log10(IC50) of Cc1ncc(C(CNC(=O)c2cccc3nc(N4CCOCC4)ccc23)N2CCC(F)(F)CC2)cn1 (centres unmarked) is ____.
Reply: 1.68

Query: Fill in the blank: the reported log10(IC50) of O=C(NCC(c1cnc(OC2CCC2)nc1)N1CCOCC1)c1cccc2nc(N3CCOCC3)ccc12 (centres unmarked) is ____.
Reply: 2.07

Query: Fill in the blank: the reported log10(IC50) of O=C(NCC(c1cnc(N2CCNCC2)nc1)N1CCC(F)(F)CC1)c1cccc2nc(N3CCOCC3)ccc12 (centres unmarked) is ____.
Reply: 2.02

Continuing:
Query: Fill in the blank: the reported log10(IC50) of CCOc1ncc(C(CNC(=O)c2cccc3nc(NCC4CC4)ccc23)N2CCC(F)(F)CC2)cn1 (centres unmarked) is ____.
Reply: 1.42

Query: Fill in the blank: the reported log10(IC50) of CCCc1cc(C(=O)NCC(c2ccc(C(F)(F)F)nc2)N2CCC(F)(F)CC2)c2ccccc2n1 (centres unmarked) is ____.
Reply: 1.74

Query: Fill in the blank: the reported log10(IC50) of CC(C)N1CCN(c2ccc3c(C(=O)NCC(c4cnc(C5CCCC5)nc4)N4CCC(F)(F)CC4)cccc3n2)CC1 (centres unmarked) is ____.
Reply: 2.00

Query: Fill in the blank: the reported log10(IC50) of CC1CN(C(CNC(=O)c2cccc3ncccc23)c2cnc(C(F)(F)F)nc2)CCO1 (centres unmarked) is ____.
Reply: 2.48

Query: Fill in the blank: the reported log10(IC50) of CCc1ncc(C(CNC(=O)c2cccc3nc(NCC4CC4)ccc23)N2CCC(F)(F)CC2)cn1 (centres unmarked) is ____.
Reply: 1.68
